Assay: Example 3: plasma pharmacokinetics of two sequential doses
Format: in vivo, human
Settings: male, human, po, 2400 mg, healthy males, 2400 mg oral, Day 1, N 11, read-out: Cmax, Geometric mean

Given smiles | Cmax [ng/mL]
CC(C)(C[C@H](N)C(=O)O)C(F)F | 43900

====

Test: 14-day Q3D oral toxicology study in cynomolgus monkeys
Conditions: cynomolgus monkey, in vivo; cynomolgus monkeys; 160, 500 or 2000 mg/kg PO Q3D for 14 days (5 doses); read-out: no-observed-adverse-effect level (NOAEL)
Experimental: In cynomolgus monkeys administered 160, 500, or 2000 mg/kg PO Q3D for 14 days (5 doses total), the NOAEL was 160 mg/kg. Precautions related to cardiovascular safety in this clinical study included frequent measurement of vital signs (e.g., blood pressure, pulse, and body temperature) and frequent electrocardiograms (ECGs).

Molecule | Unit abbreviation | NOAEL at 14 days
CC(C)(C[C@H](N)C(=O)O)C(F)F [Compound A] | mg/kg | 160

====

Experiment: Example 3: plasma pharmacokinetics of two sequential doses
Type: in vivo, human
Conditions: male, human, po, 2400 mg, healthy males, 2400 mg oral, Day 1, N 11, read-out: AUC(0-48), Geometric mean

Given smiles | AUC / µg·h/mL
CC(C)(C[C@H](N)C(=O)O)C(F)F | 438

====

Test: Example 3: plasma pharmacokinetics of two sequential doses
Type: in vivo, human
Details: male, human, po, 2400 mg, healthy males, 2400 mg oral, Day 1, N 11, read-out: AUC(0-24), Mean
Readout label: AUC

Compound | Assay value
CC(C)(C[C@H](N)C(=O)O)C(F)F [Compound A] | 358 µg·h/mL

====

Assay: Example 3: plasma pharmacokinetics of two sequential doses
Assay type: in vivo, human
Conditions: male, human, po, 2400 mg, healthy males, 2400 mg oral, second dose, Day 3, N 11, read-out: T1/2, Median (converted)
Readout label: half-life (min)

Given smiles | Assay value
CC(C)(C[C@H](N)C(=O)O)C(F)F | 936

====

Assay: Example 2: single-dose pharmacokinetics in plasma and CSF
Format: in vivo, human
Details: male, human, in vivo; healthy males; single oral 2400 mg

Compound | half-life
CC(C)(C[C@H](N)C(=O)O)C(F)F [Compound A] | 10 to 13 h

====

Assay: Example 3: plasma pharmacokinetics of two sequential doses
Type: in vivo, human
Conditions: male, human, po, 2400 mg, healthy males, 2400 mg oral, second dose, Day 3, N 11, read-out: Cmax, Mean

Given smiles | Cmax (ng/mL)
CC(C)(C[C@H](N)C(=O)O)C(F)F | 45600

====

Assay: Example 3: plasma pharmacokinetics of two sequential doses
Assay type: in vivo, human
Settings: male, human, po, 2400 mg, healthy males, 2400 mg oral, Day 1, N 11, read-out: T1/2, Geometric mean (converted)

Given smiles | half-life, h
CC(C)(C[C@H](N)C(=O)O)C(F)F | 12.1

====

Assay: Example 3: plasma pharmacokinetics of two sequential doses
Type: in vivo, human
Settings: male, human, po, 2400 mg, healthy males, 2400 mg oral, second dose, Day 3, N 11, read-out: T1/2, Mean (converted)

Given smiles | half-life / min
CC(C)(C[C@H](N)C(=O)O)C(F)F | 936

====

Assay: Example 3: plasma pharmacokinetics of two sequential doses
Format: in vivo, human
Conditions: male, human, po, 2400 mg, healthy males, 2400 mg oral, Day 1, N 11, read-out: AUC(0-24), Geometric mean

Given smiles | Unit abbreviation | AUC
CC(C)(C[C@H](N)C(=O)O)C(F)F | µg·h/mL | 355

The measured values listed here are drawn from patent US11723890B2.
